Tested on: SW1271 complex spheroids with HUVEC/MSC, growth, % test/control
method_notes: Anticancer human tumor SW1271 cell line growth inhibition [AhR];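 note: spheroids exposed to agents for 7 days before readout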
experimental_conditions: curve of first compound; second compound 10 µM
From the text: Multicellular complex tumor spheroid response to aryl hydrocarbon receptor antagonists in combination with a variety of drugs and investigational agents in selected tumor cell lines […] Compounds. […] If the clinical Cmax for an agent had not been determined, the highest concentration tested was 10 microM (Table 1). […]
pIC50: −log10 of the molar value.
Each item that follows carries a reported pIC50.
assay_endpoint: pIC50

compound | assay_endpoint | val
CC1COCCN1c1cc(-c2ccnn2C)c2ccnc(-c3ccn[nH]3)c2n1 (stereo not drawn) + Cc1ccccc1N=Nc1ccc(NC(=O)c2ccnn2C)c(C)c1 | pIC50 | < 6.00
O=C(c1cc(Cc2n[nH]c(=O)c3ccccc23)ccc1F)N1CCN(C(=O)C2CC2)CC1 + Cc1cncc(-c2nc(NCCc3c[nH]c4ccccc34)c3ncn(C(C)C)c3n2)c1 | pIC50 | > 7.50
CCN(c1cc(-c2ccc(CN3CCOCC3)cc2)cc(C(=O)NCc2c(C)cc(C)[nH]c2=O)c1C)C1CCOCC1 + Cc1ccccc1N=Nc1ccc(NC(=O)c2ccnn2C)c(C)c1 | pIC50 | < 5.52
